Attribution: PubChem BioAssay (NCI)

Assay: NCI Yeast Anticancer Drug Screen. Data for the mgt1 strain (AID 153)
Conditions: S. cerevisiae mgt1 mutant growth inhibition; at 33.0 µM
This is part of a sample that, as a whole, favours compounds with a hit. Of some 79,000 tested, about 15% had one in any assay. Active and inactive are the calls of the source. Rule as the data show it: active = growth inhibition above about 70%; inactive = the rest.
# valid calls are active, inactive; nothing else

Inquiry: Dear colleague, could you share the recorded outcome for COc1cccc2c1C(=O)c1c(O)c3c(c(O)c1C2=O)CC(O)(C(O)CO)CC3OC1CC(N2CCOCC2)C(O)C(C)O1 (stereo unspecified) when you have a moment?
Reply text: active

Inquiry: Dear colleague, could you share the recorded outcome for `C(=Nc1ccc(-c2cc(-c3ccccc3)nc3ccc4ccccc4c23)cc1)c1ccccc1` when you have a moment?
Reply text: inactive

Inquiry: Dear colleague, could you share the recorded outcome for `O=c1[nH]c(-c2ccccc2)nc2c1sc1nc3ccccc3n12` when you have a moment?
Reply text: inactive

Inquiry: Dear colleague, could you share the recorded outcome for C#CCN(Cc1ccc2nc(N)[nH]c(=O)c2c1)c1ccc(C(=O)NC(CCC(=O)O)C(=O)O)cc1 (stereo unspecified) when you have a moment?
Reply text: inactive

Inquiry: Dear colleague, could you share the recorded outcome for c1ccc2c(OCC3CO3)cccc2c1 (stereo unspecified) when you have a moment?
Reply text: inactive

Inquiry: Dear colleague, could you share the recorded outcome for `O=[n+]1c2ccccc2n([O-])c2cc(Br)ccc21` when you have a moment?
Reply text: active

Inquiry: Dear colleague, could you share the recorded outcome for `C/C=C/SC(=Nc1ccccc1)Nc1ccccc1` when you have a moment?
Reply text: inactive

Inquiry: Dear colleague, could you share the recorded outcome for `CCCCOCn1c(=O)[nH]c(=O)c2cc(Br)ccc21` when you have a moment?
Reply text: inactive

Inquiry: Dear colleague, could you share the recorded outcome for `COc1ccc2c(c1)n([O-])c1ccccc1[n+]2=O` when you have a moment?
Reply text: inactive

Inquiry: Dear colleague, could you share the recorded outcome for `COc1c(O)c(C=O)c(Br)c(C=O)c1O` when you have a moment?
Reply text: inactive

Inquiry: Dear colleague, could you share the recorded outcome for Cc1ccc2c(c1)C1(SC(C)C(=O)N1c1ccc(Cl)cc1)C(=O)N2 (stereo unspecified) when you have a moment?
Reply text: active

====

Assay: NCI Yeast Anticancer Drug Screen. Data for the bub3 strain (AID 167)
Conditions: S. cerevisiae bub3 mutant strain, at 100.0 µM
Compounds without any hit were thinned out: in the full panel of roughly 79,000, 15% have a hit. Calls of active or inactive are those of the source. No stated cut-off is given here; in the data, active means growth inhibition above about 70%; inactive means the rest.
# valid calls are true (active), false (inactive); nothing else

Below are worked cases with known answers.
COC1=C(N)C(=O)c2nc(-c3nc(C(=O)O)c(C)c(-c4ccc(OC)c(OC)c4O)c3N)ccc2C1=O	true
O=C1C(Br)=C(c2ccccc2)O/C1=C/C(=O)c1ccc(Br)cc1	true
CC(=O)Nc1ccc2c(c1)Cc1cc(N=C3C=CC(=O)O3)ccc1-2	true
CCCCCCN(CCCCCC)CC(O)c1ccnc2ccc(OC)cc12 (stereo unspecified)	false
COc1ccc(C(=O)c2ccccc2C(=O)c2ccccc2OC)cc1	false

Inquiry: Dear colleague, could you share the recorded outcome for `Cc1ccc2nc(-c3cccc([N+](=O)[O-])c3)oc(=O)c2c1` when you have a moment?
Reply text: false

Inquiry: Dear colleague, could you share the recorded outcome for `COC(=O)/C=C(/CC(=O)OC)C(=O)OC` when you have a moment?
Reply text: false

Inquiry: Dear colleague, could you share the recorded outcome for CCCOC(=O)C(F)C(Br)C(=O)OCCC (stereo unspecified) when you have a moment?
Reply text: true

Inquiry: Dear colleague, could you share the recorded outcome for `COc1ccc2[nH]cc([C@@H]3C4CCC(C4)[C@H]3NCc3cccc(CN[C@H]4C5CCC(C5)[C@@H]4c4c[nH]c5ccc(OC)cc45)c3)c2c1` when you have a moment?
Reply text: true

Inquiry: Dear colleague, could you share the recorded outcome for `Clc1ccc2c(c1)N(CCCN1CCCC13CCCCC3)c1ccccc1S2` when you have a moment?
Reply text: false

Inquiry: Dear colleague, could you share the recorded outcome for N#CC1=C(N)N(/N=C/c2ccccc2)C(c2ccccc2)C1(C#N)C#N (stereo unspecified) when you have a moment?
Reply text: true

Inquiry: Dear colleague, could you share the recorded outcome for CC(=O)OC1CC2C(C)(C)C(=O)C=C[C@]2(C)C2CCC3(C)C(=CCC3[C@H](CO)C[C@H](O)C(=O)C(C)(C)O)[C@]12C (stereo partly specified) when you have a moment?
Reply text: true
